Biological target: T1, human GLP-1 receptor (human, UniProt P43220 24-463)
T1 construct: whole, on cells
Assay: SPA competition, displacement of 125I-GLP-1(7-36)NH2 from BHK membranes with human GLP-1 receptor; high HSA (2.0%)
Starred links: 1 amine or outer side, 2 acyl side, 3 side chain; linkers in the order of their positions; H or OH if unused. Non-standard residues stand in square brackets, D forms with d. Groups on a side chain read outwards from the residue. No end group written: not given here. *: point of attachment. C20 diacid = O=C(O)CCCCCCCCCCCCCCCCCCC(=O)*; γGlu = O=C(O)[C@H](CCC(=O)[*:2])N[*:1]; Desaminohistidyl = O=C(CCc1c[nH]cn1)*; Trx = NC[C@H]1CC[C@H](C(=O)O)CC1; AEEA = NCCOCCOCC(=O)O; Aib = CC(C)(N)C(=O)O
Could you mark each record met if its IC50 falls strictly under 50 nM, and not met if it equals or exceeds it?

Binder	Label
H[Aib]EGTFTSDVSSYLEEQAAREFIAWLVRKRG (not fully specified (residue 29), also called Chem. 37; N{Epsilon-35}-acylated [Aib8,Glu22,Arg26,Arg34,Lys35]-GLP-1-(7-37)-peptide) [GLP-1 derivative of Example 17]	not met
HXEGTFTSDVSSYLEEQAAREFIAWLVRGRK (not fully specified; Aib at position 8 (GLP-1 numbering); epsilon-amino of Lys37 acylated with branched side chain: Pre-linker dPEG6; Branched linker eps-Lys(Bis); two Post-linkers Trx-gGlu, each carrying a C20 diacid Protractor, also called Chem. 23; N{Epsilon-37}-acylated [Aib8,Glu22,Arg26,Arg34,Lys37]-GLP-1-(7-37)-peptide) [GLP-1 derivative of Example 3]	not met
[Desaminohistidyl][Aib]EGTFTSDVSSYLEEQAAREFIAWLVRGRGGK([AEEA-AEEA-Lys-AEEA-AEEA-γGlu-Trx-C20 diacid),(Ado-AEEA-γGlu-Trx-C20 diacid]) (also: branched side chain on Lys39: two identical arms on eps-Lys(Bis), also called Chem. 27; [Imp7,Aib8,Glu22,Arg26,Arg34]-GLP-1-(7-37)-peptidyl-Gly-N{Epsilon}-acylated Lys) [GLP-1 derivative of Example 7]	not met
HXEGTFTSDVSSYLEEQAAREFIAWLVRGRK (not fully specified; Aib at position 8 (GLP-1 numbering); epsilon-amino of Lys37 acylated with branched side chain: Pre-linker 4xAdo; Branched linker eps-Lys(Bis); two Post-linkers Trx-gGlu-2xAdo, each carrying a C20 diacid Protractor, also called Chem. 35; N{Epsilon-37}-acylated [Aib8,Glu22,Arg26,Arg34,Lys37]-GLP-1-(7-37)-peptide) [GLP-1 derivative of Example 15]	met

// query Bench note: check whether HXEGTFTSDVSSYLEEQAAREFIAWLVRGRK (not fully specified; Aib at position 8 (GLP-1 numbering); epsilon-amino of Lys37 acylated with branched side chain: Pre-linker 2xAdo; Branched linker eps-Lys(Bis); two Post-linkers Trx-gGlu-4xAdo, each carrying a C20 diacid Protractor, also called Chem. 34; N{Epsilon-37}-acylated [Aib8,Glu22,Arg26,Arg34,Lys37]-GLP-1-(7-37)-peptide) [GLP-1 derivative of Example 14] shows IC50 below 50 nM
// result met

Value source: patent US20180258153A1
